Taken from patent US12201679B2.

Assignment: determine reported Isocratic point (%) for the given compounds.
experimental.details: Isocratic point, elution from C18 prep-scale column
Format: physicochemical
recorded.conditions: elution from C18 column
Bridge positions count the residues as written; N and C are the ends. Square brackets hold non-standard residues; d marks the D form. Triazole bridges read from a SMILES are 1,4-linked. Peptide text beside a SMILES is read from it. * marks the point of attachment. Biotin = O=C1N[C@H]2[C@H](CS[C@H]2CCCCC(=O)*)N1; PEG10 = NCCOCCOCCOCCOCCOCCOCCOCCOCCOCCOCCC(=O)O; Lys(N3) = [N-]=[N+]=NCCCC[C@H](N)C(=O)O; Pra = C#CC[C@H](N)C(=O)O
Report the figure in % without appending any unit label.

# return recorded Isocratic point (%) for input CC(C)C[C@@H]1NC(=O)[C@@H](NC(=O)CCOCCOCCOCCOCCOCCOCCOCCOCCOCCOCCNC(=O)CCCC[C@@H]2SC[C@@H]3NC(=O)N[C@@H]32)Cc2cn(nn2)CCCC[C@@H](C(N)=O)NC(=O)[C@H](Cc2ccccc2)NC(=O)[C@H](Cc2ccccc2)NC(=O)[C@H](Cc2ccccc2)NC1=O [compound 8] ({Biotin-PEG10}-[Pra]LFFF[Lys(N3)]-NH2; triazole 1-6) 61.84

# return recorded Isocratic point (%) for input CC(C)C[C@@H]1NC(=O)[C@H](CC(C)C)NC(=O)[C@@H](NC(=O)CCOCCOCCOCCOCCOCCOCCOCCOCCOCCOCCNC(=O)CCCC[C@@H]2SC[C@@H]3NC(=O)N[C@@H]32)Cc2cn(nn2)CCCC[C@@H](C(N)=O)NC(=O)[C@H](Cc2ccccc2)NC(=O)[C@H](Cc2ccccc2)NC(=O)[C@H](C)NC1=O [compound 4] ({Biotin-PEG10}-[Pra]LLAFF[Lys(N3)]-NH2; triazole 1-7) 70.97

----------
Assignment: determine reported Relative affinity (ratio of ELISA signal versus cy(LLFFF)) for the given molecules.
target.or.test.system: full-length recombinant MrkA protein (Klebsiella pneumoniae)
Format: binding
recorded.conditions: ELISA 2; [MrkA] 25 nM
Bridge positions count the residues as written; N and C are the ends. Square brackets hold non-standard residues; d marks the D form. Triazole bridges read from a SMILES are 1,4-linked. Peptide text beside a SMILES is read from it. * marks the point of attachment. Biotin = O=C1N[C@H]2[C@H](CS[C@H]2CCCCC(=O)*)N1; PEG10 = NCCOCCOCCOCCOCCOCCOCCOCCOCCOCCOCCC(=O)O; Lys(N3) = [N-]=[N+]=NCCCC[C@H](N)C(=O)O; Pra = C#CC[C@H](N)C(=O)O

# return recorded Relative affinity (ratio of ELISA signal versus cy(LLFFF)) for input CC(C)C[C@@H]1NC(=O)[C@H](C)NC(=O)[C@@H](NC(=O)CCOCCOCCOCCOCCOCCOCCOCCOCCOCCOCCNC(=O)CCCC[C@@H]2SC[C@@H]3NC(=O)N[C@@H]32)Cc2cn(nn2)CCCC[C@@H](C(N)=O)NC(=O)[C@H](Cc2ccccc2)NC(=O)[C@H](Cc2ccccc2)NC(=O)[C@H](Cc2ccccc2)NC1=O [compound 2] ({Biotin-PEG10}-[Pra]ALFFF[Lys(N3)]-NH2; triazole 1-7) 0.53

# return recorded Relative affinity (ratio of ELISA signal versus cy(LLFFF)) for input CC(C)C[C@@H]1NC(=O)[C@@H](NC(=O)CCOCCOCCOCCOCCOCCOCCOCCOCCOCCOCCNC(=O)CCCC[C@@H]2SC[C@@H]3NC(=O)N[C@@H]32)Cc2cn(nn2)CCCC[C@@H](C(N)=O)NC(=O)[C@H](Cc2ccccc2)NC(=O)[C@H](Cc2ccccc2)NC(=O)[C@H](Cc2ccccc2)NC(=O)[C@H](CC(C)C)NC1=O [Ref. compound] ({Biotin-PEG10}-[Pra]LLFFF[Lys(N3)]-NH2; triazole 1-7) 1.00

# return recorded Relative affinity (ratio of ELISA signal versus cy(LLFFF)) for input CC(C)C[C@@H]1NC(=O)[C@@H](NC(=O)CCOCCOCCOCCOCCOCCOCCOCCOCCOCCOCCNC(=O)CCCC[C@@H]2SC[C@@H]3NC(=O)N[C@@H]32)CCCCn2cc(nn2)C[C@@H](C(N)=O)NC(=O)[C@H](C)NC(=O)[C@H](Cc2ccccc2)NC(=O)[C@H](Cc2ccccc2)NC(=O)[C@H](CC(C)C)NC1=O [compound 6] ({Biotin-PEG10}-[Lys(N3)]LLFFA[Pra]-NH2; triazole 1-7) 0.04

----------
Assignment: determine reported Relative affinity (ratio of ELISA signal versus cy(LLFFF)) for the given compounds.
target.or.test.system: full-length recombinant MrkA protein (Klebsiella pneumoniae, UniProt P12267)
Sequence (P12267 23-202): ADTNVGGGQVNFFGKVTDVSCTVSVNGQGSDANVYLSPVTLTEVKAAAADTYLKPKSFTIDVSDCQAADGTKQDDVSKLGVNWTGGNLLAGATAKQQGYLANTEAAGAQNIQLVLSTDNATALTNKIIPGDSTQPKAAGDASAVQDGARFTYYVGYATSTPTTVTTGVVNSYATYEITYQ
Assay type: binding
recorded.conditions: ELISA 6; [MrkA] 25 nM
Bridge positions count the residues as written; N and C are the ends. Square brackets hold non-standard residues; d marks the D form. Triazole bridges read from a SMILES are 1,4-linked. Peptide text beside a SMILES is read from it. * marks the point of attachment. Biotin = O=C1N[C@H]2[C@H](CS[C@H]2CCCCC(=O)*)N1; PEG10 = NCCOCCOCCOCCOCCOCCOCCOCCOCCOCCOCCC(=O)O; Lys(N3) = [N-]=[N+]=NCCCC[C@H](N)C(=O)O; Pra = C#CC[C@H](N)C(=O)O
// print number alone

Report Relative affinity (ratio of ELISA signal versus cy(LLFFF)) from full-length recombinant MrkA protein (Klebsiella pneumoniae, UniProt P12267) testing of NC(=O)[C@@H]1CCCCn2cc(nn2)C[C@H](NC(=O)CCOCCOCCOCCOCCOCCOCCOCCOCCOCCOCCNC(=O)CCCC[C@@H]2SC[C@@H]3NC(=O)N[C@@H]32)C(=O)N[C@@H](Cc2ccccc2)C(=O)N[C@@H](Cc2ccccc2)C(=O)N[C@@H](Cc2ccccc2)C(=O)N1 [compound 23] ({Biotin-PEG10}-[Pra]FFF[Lys(N3)]-NH2; triazole 1-5) 0.14

Report Relative affinity (ratio of ELISA signal versus cy(LLFFF)) from full-length recombinant MrkA protein (Klebsiella pneumoniae, UniProt P12267) testing of CC(C)C[C@@H]1NC(=O)[C@@H](NC(=O)CCOCCOCCOCCOCCOCCOCCOCCOCCOCCOCCNC(=O)CCCC[C@@H]2SC[C@@H]3NC(=O)N[C@@H]32)Cc2cn(nn2)CCCC[C@@H](C(N)=O)NC(=O)[C@H](Cc2ccccc2)NC(=O)[C@H](Cc2ccccc2)NC(=O)[C@H](Cc2ccccc2)NC(=O)[C@H](CC(C)C)NC1=O [Ref. compound] ({Biotin-PEG10}-[Pra]LLFFF[Lys(N3)]-NH2; triazole 1-7) 1.00

Report Relative affinity (ratio of ELISA signal versus cy(LLFFF)) from full-length recombinant MrkA protein (Klebsiella pneumoniae, UniProt P12267) testing of CC(C)C[C@@H]1NC(=O)[C@H](CC(=O)O)NC(=O)[C@@H](NC(=O)CCOCCOCCOCCOCCOCCOCCOCCOCCOCCOCCNC(=O)CCCC[C@@H]2SC[C@@H]3NC(=O)N[C@@H]32)Cc2cn(nn2)CCCC[C@@H](C(N)=O)NC(=O)[C@H](Cc2ccccc2)NC(=O)[C@H](Cc2ccccc2)NC(=O)[C@H](Cc2ccccc2)NC1=O [compound 20] ({Biotin-PEG10}-[Pra]DLFFF[Lys(N3)]-NH2; triazole 1-7) 0.21

----------
target.or.test.system: full-length recombinant MrkA protein (Klebsiella pneumoniae, UniProt P12267)
Format: binding
recorded.conditions: ELISA 3; [MrkA] 50 nM
Bridge positions count the residues as written; N and C are the ends. Square brackets hold non-standard residues; d marks the D form. Triazole bridges read from a SMILES are 1,4-linked. Peptide text beside a SMILES is read from it. * marks the point of attachment. Biotin = O=C1N[C@H]2[C@H](CS[C@H]2CCCCC(=O)*)N1; PEG10 = NCCOCCOCCOCCOCCOCCOCCOCCOCCOCCOCCC(=O)O; Lys(N3) = [N-]=[N+]=NCCCC[C@H](N)C(=O)O; Pra = C#CC[C@H](N)C(=O)O
property: Relative affinity (ratio of ELISA signal versus cy(LLFFF))
// print number alone

# return recorded Relative affinity (ratio of ELISA signal versus cy(LLFFF)) for input C[C@@H]1NC(=O)[C@H](C)NC(=O)[C@@H](NC(=O)CCOCCOCCOCCOCCOCCOCCOCCOCCOCCOCCNC(=O)CCCC[C@@H]2SC[C@@H]3NC(=O)N[C@@H]32)Cc2cn(nn2)CCCC[C@@H](C(N)=O)NC(=O)[C@H](Cc2ccccc2)NC(=O)[C@H](Cc2ccccc2)NC(=O)[C@H](Cc2ccccc2)NC1=O [compound 7] ({Biotin-PEG10}-[Pra]AAFFF[Lys(N3)]-NH2; triazole 1-7) 0.15

----------
experimental.details: Isocratic point, elution from C18 prep-scale column
Type: physicochemical
recorded.conditions: elution from C18 column
Bridge positions count the residues as written; N and C are the ends. Square brackets hold non-standard residues; d marks the D form. Triazole bridges read from a SMILES are 1,4-linked. Peptide text beside a SMILES is read from it. * marks the point of attachment. Biotin = O=C1N[C@H]2[C@H](CS[C@H]2CCCCC(=O)*)N1; PEG10 = NCCOCCOCCOCCOCCOCCOCCOCCOCCOCCOCCC(=O)O; Lys(N3) = [N-]=[N+]=NCCCC[C@H](N)C(=O)O; Pra = C#CC[C@H](N)C(=O)O
property: Isocratic point (%)
Report the figure in % without appending any unit label.

# return recorded Isocratic point (%) for input CC(C)C[C@@H]1NC(=O)[C@H](CC(=O)O)NC(=O)[C@@H](NC(=O)CCOCCOCCOCCOCCOCCOCCOCCOCCOCCOCCNC(=O)CCCC[C@@H]2SC[C@@H]3NC(=O)N[C@@H]32)Cc2cn(nn2)CCCC[C@@H](C(N)=O)NC(=O)[C@H](Cc2ccccc2)NC(=O)[C@H](Cc2ccccc2)NC(=O)[C@H](Cc2ccccc2)NC1=O [compound 20] ({Biotin-PEG10}-[Pra]DLFFF[Lys(N3)]-NH2; triazole 1-7) 66.33

# return recorded Isocratic point (%) for input CC(C)C[C@@H]1NC(=O)[C@H](Cc2c[nH]cn2)NC(=O)[C@@H](NC(=O)CCOCCOCCOCCOCCOCCOCCOCCOCCOCCOCCNC(=O)CCCC[C@@H]2SC[C@@H]3NC(=O)N[C@@H]32)Cc2cn(nn2)CCCC[C@@H](C(N)=O)NC(=O)[C@H](Cc2ccccc2)NC(=O)[C@H](Cc2ccccc2)NC(=O)[C@H](Cc2ccccc2)NC1=O [compound 19] ({Biotin-PEG10}-[Pra]HLFFF[Lys(N3)]-NH2; triazole 1-7) 47.52

# return recorded Isocratic point (%) for input CC(C)C[C@@H]1NC(=O)[C@@H](NC(=O)CCOCCOCCOCCOCCOCCOCCOCCOCCOCCOCCNC(=O)CCCC[C@@H]2SC[C@@H]3NC(=O)N[C@@H]32)Cc2cn(nn2)CCCC[C@@H](C(N)=O)NC(=O)[C@H](Cc2ccccc2)NC(=O)[C@H](CC(C)C)NC1=O [compound 22] ({Biotin-PEG10}-[Pra]LLF[Lys(N3)]-NH2; triazole 1-5) 56.45
